# ASSAY COMMENT: gradient 5% acetonitrile 3 min, to 50% in 2 min, to 85% in 15 min, held 3 min, 100 µL/min
# CONDITION LABEL: column: Zorbax Extend-C18 2.1 x 50 mm; eluents: water / acetonitrile, 0.1% formic acid
MEASUREMENT TYPE: RP-LC retention time (s)

COMPOUND	MEASUREMENT TYPE	MEAS VALUE
CCc1ccccc1NC(=O)N1CCC(c2cc(N)on2)CC1	RP-LC retention time	751
COc1ccc(C(=O)c2c(C)n(CCN3CCOCC3)c3ccccc23)cc1	RP-LC retention time	780
COc1cc(OC)cc(-c2nc(-c3ccc(-n4ccnc4)nc3)no2)c1	RP-LC retention time	769
Cc1ccc(C)c(C(=O)Nc2cnn(-c3ncc(N(C)C)cn3)c2)c1	RP-LC retention time	788
O=S(=O)(c1cccc(-c2nnc(-c3ccccc3Br)o2)c1)N1CCOCC1	RP-LC retention time	940
CC(C)NC(=O)c1cnn2c(-c3ccccn3)ccnc12	RP-LC retention time	718
O=C(NC1CCN(c2cc(-c3cccs3)[nH]n2)C1)c1ccc(F)cc1F (centres undefined)	RP-LC retention time	718
CCN(CC)S(=O)(=O)c1cc(-c2nnc(-c3ccc(OC)c(OC)c3)o2)ccc1C	RP-LC retention time	991
COc1ccc2c(c1)C1(CCN(S(=O)(=O)c3cccc(Cl)c3)C1)C(=O)N2C (centres undefined)	RP-LC retention time	978

---

# ASSAY COMMENT: gradient 5% acetonitrile 3 min, to 50% in 2 min, to 85% in 15 min, held 3 min, 100 µL/min
# CONDITION LABEL: column: Zorbax Extend-C18 2.1 x 50 mm; eluents: water / acetonitrile, 0.1% formic acid
MEASUREMENT TYPE: RP-LC retention time (s)

COMPOUND	UNIT ABBREVIATION	RP-LC retention time
CCNc1cc(N2CCC(CCC(=O)NCc3ccccc3C)CC2)ncn1	s	651
COc1ccc(CNC(=O)c2ccc(CN3CCN(C(C)C)C(=O)C3=O)cc2)cc1	s	693
COc1ccccc1-c1nc(Cn2ccnc2C)no1	s	584
CCS(=O)(=O)c1nc2ccc(NS(=O)(=O)c3ccccc3)cc2s1	s	838
CCn1nccc1C(=O)NC(C)(C)c1nc2c(c(C(N)=O)n1)OCO2	s	614
Cc1[nH]c(C)c(S(=O)(=O)N2CCC(C(=O)Nc3ccc(Cl)cc3)CC2)c1C(=O)N1CCCC1	s	788
COc1ccc(-c2nnc(SCc3cc(=O)n4ccsc4n3)o2)cc1	s	722
O=c1ccc(N2CCCN(S(=O)(=O)c3cccc(Cl)c3)CC2)nn1-c1ccccc1	s	868
COc1ccc(NC(=O)Nc2c(-c3ccc(F)cc3)nc3ccccn23)cc1OC	s	629
O=C(NCC1CC1)c1nnn(Cc2ccc(Cl)cc2)c1-n1cccc1	s	1010
CC(C)(C)C(=O)N1CCC(C(=O)NCc2ccc3c(c2)OCO3)CC1	s	712
O=C(O)c1nnn(-c2cccc(F)c2)c1-c1cccnc1	s	614
CSc1cccc(NC(=O)CSc2ccc(N3CCCC(C(=O)NC4CC4)C3)nn2)c1 (stereo unspecified)	s	682
Cc1ccc2nc(N3CCN(c4ccccc4F)CC3)c(-c3noc(C)n3)cc2c1	s	730
O=C(NC1CCCC1)c1cc(C2CC2)[nH]n1	s	692
CC(C)c1nnc(-c2cccnc2N2CCN(C(=O)c3ccco3)CC2)o1	s	735

---

# ASSAY COMMENT: gradient 5% acetonitrile 3 min, to 50% in 2 min, to 85% in 15 min, held 3 min, 100 µL/min
# CONDITION LABEL: column: Zorbax Extend-C18 2.1 x 50 mm; eluents: water / acetonitrile, 0.1% formic acid
MEASUREMENT TYPE: RP-LC retention time (s)

COMPOUND	MEASUREMENT TYPE	UNIT ABBREVIATION	MEAS VALUE
CC1(C(=O)NC2CCCCC2)CN(S(C)(=O)=O)CC(=O)N1c1ccc(Cl)cc1 (stereo unspecified)	RP-LC retention time	s	860
COc1ccc(OC)c(-c2ccc(=O)n(CCc3nc(-c4ccc(F)cc4)no3)n2)c1	RP-LC retention time	s	977
O=C(CC1CCCCN1S(=O)(=O)c1ccccc1)NCCc1c[nH]c2ccccc12 (stereo unspecified)	RP-LC retention time	s	794
N#Cc1ccc(Cl)cc1NC(=O)C(=O)NCC1CCCO1 (stereo unspecified)	RP-LC retention time	s	759
COc1cccc(CNC(=O)c2nc3cccnc3n(CC(C)C)c2=O)c1	RP-LC retention time	s	850
CCC(Oc1ccc(=O)n(-c2ccc(F)cc2)n1)C(=O)NCc1ccc(C)o1 (stereo unspecified)	RP-LC retention time	s	831
CCC(C)NC(=O)N1CCC(N2CCN(Cc3cccc(C)c3)C2=O)CC1 (stereo unspecified)	RP-LC retention time	s	784
CC1CCN(C(=O)C2=CN(c3ccc4c(c3)OCCO4)c3ccccc3S2(=O)=O)CC1	RP-LC retention time	s	899
Cc1sc(NC(=O)Cc2csc(-c3ccccc3)n2)nc1-c1ccccc1	RP-LC retention time	s	1160
CCCn1c(C)cnc1C1CN(S(=O)(=O)c2ccccc2Cl)C1	RP-LC retention time	s	660

A. O=S(=O)(Nc1ccc(F)cc1)c1cccnc1Nc1cccc(F)c1
B. COc1ccc(NC(=O)Cn2cnc3nc4c(cc3c2=O)CCCC4)cc1
Request: Higher RP-LC retention time between A and B ? // caller expects the label of the chosen entry
Result: A

I. CC(C)Sc1nnc(N2CCN(c3ccc(F)cc3)CC2)s1
II. COC(=O)CC(NC(=O)N1CCCn2nc(-c3cccnc3)cc2C1)c1ccccc1 (stereo unspecified)
Request: For I and II , which recorded RP-LC retention time is lower? Mark your selection by writing its label.
Result: II
(II: 596 s, I: 1000 s)

---

# ASSAY COMMENT: gradient 5% acetonitrile 3 min, to 50% in 2 min, to 85% in 15 min, held 3 min, 100 µL/min
# CONDITION LABEL: column: Zorbax Extend-C18 2.1 x 50 mm; eluents: water / acetonitrile, 0.1% formic acid
MEASUREMENT TYPE: RP-LC retention time (s)

MOLECULE	RP-LC retention time, s
O=C(CSc1nc2ccsc2c(=O)n1-c1ccccc1)Nc1ncn[nH]1	655
COc1ccc(Cl)cc1NC(=O)N1CC2CC1C(=O)O2 (stereo not drawn)	699
O=C(CSc1nnc(NC(=O)COc2ccc(Cl)cc2)s1)NCc1ccco1	768

---

# ASSAY COMMENT: gradient 5% acetonitrile 3 min, to 50% in 2 min, to 85% in 15 min, held 3 min, 100 µL/min
# CONDITION LABEL: column: Zorbax Extend-C18 2.1 x 50 mm; eluents: water / acetonitrile, 0.1% formic acid
MEASUREMENT TYPE: RP-LC retention time (s)

COMPOUND	MEASUREMENT TYPE	MEAS VALUE
CCOC(=O)c1c(S(=O)(=O)N2CCC(C(=O)NCc3cccc(C)c3)CC2)c(C)n(C)c1C	RP-LC retention time	841
CCN1CCN(CC(=O)Nc2ccc(C(C)=O)cc2)C(=O)C1=O	RP-LC retention time	580
CC(=O)N(Cc1nn(C)c2c1CN(S(=O)(=O)c1cc(F)ccc1F)CC2)c1ccccc1	RP-LC retention time	800
COCCCNC(=O)C1CCCN(c2nccc(C)n2)C1 (centres undefined)	RP-LC retention time	592

---

# ASSAY COMMENT: gradient 5% acetonitrile 3 min, to 50% in 2 min, to 85% in 15 min, held 3 min, 100 µL/min
# CONDITION LABEL: column: Zorbax Extend-C18 2.1 x 50 mm; eluents: water / acetonitrile, 0.1% formic acid
MEASUREMENT TYPE: RP-LC retention time (s)

Field: example entries. Status: answers known.
COMPOUND	UNIT ABBREVIATION	RP-LC retention time
O=C(NCC1CCOCC1)Nc1cccc(F)c1	s	698
Cc1nnc(-c2cc(NC(=O)c3ccccc3Br)c(C)s2)o1	s	858
O=C(Nc1ccc(Cl)cc1F)C1CCc2nc(N3CCOCC3)ncc2C1 (configuration not stated)	s	856
Cc1nc(N2CCN(c3ccccn3)CC2)nc2c1C(=O)CC(/C=C/c1ccccc1)C2 (configuration not stated)	s	856
COc1ccc(Cc2nc(-c3ccc4oc(C)nc4c3)no2)cc1OC	s	892

I. CCNC(=O)NC1CCN(c2nc3cccnc3n(Cc3ccccc3)c2=O)CC1
II. O=C(CCC1CCCN(c2cc(NC3CC3)ncn2)C1)NCc1cccnc1 (configuration not stated)
III. CCc1nc(-c2cccc(-c3noc(COc4ccccc4)n3)c2)cs1
Request: Sort entries by RP-LC retention time from minimum to maximum value. Order the labels as requested and list them.
Result: II, I, III
(II: 560 s, I: 877 s, III: 1300 s)

---

# ASSAY COMMENT: gradient 5% acetonitrile 3 min, to 50% in 2 min, to 85% in 15 min, held 3 min, 100 µL/min
# CONDITION LABEL: column: Zorbax Extend-C18 2.1 x 50 mm; eluents: water / acetonitrile, 0.1% formic acid
MEASUREMENT TYPE: RP-LC retention time (s)

MOLECULE	RP-LC retention time / s
CCn1c(C(=O)NCCCN2CCCC(C)C2)cc2c(-c3cccs3)nn(-c3ccccc3)c21 (stereo not drawn)	802
Cc1ccc(S(=O)(=O)Nc2cccc(-c3cn4cccc(C)c4n3)c2)cc1	674
CC(=O)N1CCc2[nH]c3ccc(C(=O)NCc4ccc(N5CCN(C)CC5)cc4)cc3c2C1	573
